Target: monomeric sarcosine oxidase (MSOX) (Bacillus sp. B-0618, UniProt P40859, K266R)
Assay: stopped-flow diode array, initial charge transfer absorbance
Type: binding
experimental-endpoint: Kd (mM)
Respond with the bare value in mM.

Field Kd (entry CNCC(=O)O ) reads 34

---

Target: monomeric sarcosine oxidase (MSOX) (Bacillus sp. B-0618, UniProt P40859, K266M)
Experiment: stopped-flow diode array, initial charge transfer absorbance
Type: binding
experimental-endpoint: Kd

Entry CNCC(=O)O [sarcosine, N-methylglycine] , monomeric sarcosine oxidase (MSOX) (Bacillus sp. B-0618, UniProt P40859, K266M) data, Kd value: 58 mM

---

Target: monomeric sarcosine oxidase (MSOX) (Bacillus sp. B-0618, UniProt P40859, K266M)
Test: absorption spectral titration of charge transfer band
Assay type: binding
experimental-endpoint: pKd
Entry type: numeric. Quantity: pKd, the -log10 of concentration in molar units.

The measured pKd associated with CSCC(=O)O [methylthioacetate] reads 1.88

Source of measurements: paper PMC2764408
